cell viability overview
# System: U2OS
# Assay Summary: cell viability relative to DMSO; higher = less toxic
# Particulars: 72 h; 10000 nM
I only need the number, in %, no unit after it.

• Nc1ncc(Cc2ccc(Br)cc2)s1 = 102
• NCc1ccccc1CC(=O)N[C@@H]1C(=O)N2C(C(=O)O)=C(CSc3nnnn3CC(=O)O)CS[C@H]12 [ceforanide] = 103
• Cc1ccc(NC(=O)Nc2cc(C(F)(F)F)ccc2F)cc1Nc1ccc2c(c1)NC(=O)/C2=C\c1ccc[nH]1 = 85.5

Kindly review the next compound as well.
// query cell viability value for entry O=C1[C@H](CC[C@H](O)c2ccc(F)cc2)[C@@H](c2ccc(O)cc2)N1c1ccc(F)cc1 91

---

# Test system: Vero E6
# Assay Summary: cell viability relative to DMSO; higher = less toxic
# Particulars: 72 h; 10 nM
Property Label: cell viability (%)
I only need the number, in %, no unit after it.

Recorded results for 3 molecules are shown here.
* CON(C)C(=O)N1N=C(c2cc(F)ccc2F)S[C@@]1(CCCN)c1ccccc1 | 81.9
* CCC(=O)O[C@H]1[C@H](O[C@@H]2[C@@H](C)[C@H](O[C@H]3C[C@@](C)(OC)[C@@H](O)[C@H](C)O3)[C@@H](C)C(=O)O[C@H](CC)[C@@](C)(O)[C@H](O)[C@@H](C)C(=O)[C@H](C)C[C@@]2(C)O)O[C@H](C)C[C@@H]1N(C)C [erythromycin-estolate] | 95.9
* O=S(=O)(N[C@H](CO)C(C(F)(F)F)C(F)(F)F)c1ccc(Cl)s1 | 101

// query cell viability value for entry CCC1(C2=NCCN2)Cc2ccccc2O1 (stereo not given) 101

// query cell viability value for entry O=C(c1cc2ccccc2o1)N1CCN(Cc2ccccc2)CC1 97.2

// query cell viability value for entry CCC(=O)NC1CCc2cccc(OC)c2C1 (stereo not given) 106

// query cell viability value for entry CO[C@H]1C[C@H](O[C@H]2[C@H](C)O[C@@H](O[C@@H]3/C(C)=C/C[C@@H]4C[C@@H](C[C@]5(C=C[C@H](C)[C@@H](C6CCCCC6)O5)O4)OC(=O)[C@@H]4C=C(C)[C@@H](O)[C@H]5OC/C(=C\C=C\[C@@H]3C)[C@]54O)C[C@@H]2OC)O[C@@H](C)[C@@H]1O 96.3

// query cell viability value for entry CC[C@H]1CN2CC[C@H]1C[C@@H]2[C@@H](O)c1ccnc2ccc(OC)cc12 [hydroquinidine] 102

// query cell viability value for entry COc1ccccc1N1CCN(CCCCNC(=O)c2ccc(-c3ccc(C(C)=O)cc3)cc2)CC1 99.5

---

cell viability overview
# Test system: U2OS
# Assay Summary: cell viability relative to DMSO; higher = less toxic
# Particulars: 72 h; 10 nM
I only need the number, in %, no unit after it.

// query cell viability value for entry CC[C@@H](C(N)=O)N1CCCC1=O 98.2

// query cell viability value for entry CC1(C)CC(Oc2ccc(-c3ccc(-c4cn[nH]c4)cc3O)nn2)CC(C)(C)N1 102

---

# Tested on: Caco-2
# Assay Summary: cell viability relative to DMSO; higher = less toxic
# Particulars: 72 h; 10000 nM
1.0 if cell viability is below 90%. 0.0 if not; exact matches included in 0.0.

Previously resolved entries follow.
- CC(C)(C)n1nc(-c2cccc3ccccc23)c2c(N)ncnc21: 1.0
- CCOC(=O)C1=C[C@@H](OC(CC)CC)[C@H](NC(C)=O)[C@@H](N)C1 [oseltamivir-phosphate]: 0.0
- O=c1ccc2ccccc2o1: 0.0
- CCCCCCNC(=O)Nc1ccc(S(=O)(=O)Nc2ccc(CCNC[C@H](O)COc3ccc(O)cc3)cc2)cc1: 0.0
- C[N+]12CCCCC1CCC(=C(c1cccs1)c1cccs1)C2 (centres undefined): 0.0

cell viability strictly < 90% for this compound? CCC(CO)(C(=O)OC1CC2CCC(C1)[N+]2(C)C)c1ccccc1 (centres undefined) 0.0

cell viability strictly < 90% for this compound? Cn1cc(-c2ccc(S(=O)(=O)n3ccc(/C=C/C(=O)Nc4ccccc4N)c3)cc2)cn1 1.0

cell viability strictly < 90% for this compound? C[N+](C)(C)CCOC(=O)CCC(=O)OCC[N+](C)(C)C [succinylcholine-chloride] 0.0

cell viability strictly < 90% for this compound? CC1CC(OC(=O)C(O)c2ccccc2)CC(C)(C)C1 (centres undefined) [cyclandelate] 0.0

---

# Tested on: Vero E6
# Assay Summary: cell viability relative to DMSO; higher = less toxic
# Particulars: 72 h; 10 nM
Property Label: cell viability (%)
I only need the number, in %, no unit after it.

Recorded results for 6 molecules are shown here.
- O=C(Nc1ccc(-c2ccnc(Nc3ccc(N4CCOCC4)cc3)n2)cc1)C1CCCN1 (centres undefined): 102
- Cc1ccc2c(c1)c1c(n2CCc2ccc(C)nc2)CCN(C)C1 [latrepirdine]: 102
- C[C@@H](NCc1cc(Br)cc2nc(O)c(O)nc12)P(=O)(O)O: 105
- CC1=C(/C=C/C(=C/C=C/C(C)=C/C(=O)O)c2ccc(C)cc2)C(C)(C)CCC1: 95.2
- C[C@H](N[C@@H](CCc1ccccc1)C(=O)O)C(=O)N1CCC[C@H]1C(=O)O: 94.5
- CCOc1cc(C(C)(C)C)ccc1C1=N[C@@](C)(c2ccc(Cl)cc2)[C@@](C)(c2ccc(Cl)cc2)N1C(=O)N1CCN(CCCS(C)(=O)=O)CC1: 107

// query cell viability value for entry O=C1NC(=S)NC(=O)C1C(=O)Nc1ccccc1 91.6

// query cell viability value for entry CC(C)(C)n1nc(-c2cccc3ccccc23)c2c(N)ncnc21 99

// query cell viability value for entry O=[N+]([O-])C(Br)(CO)CO 84.2

---

# System: U2OS
# Assay Summary: cell viability relative to DMSO; higher = less toxic
# Particulars: 72 h; 10 nM
Property Label: cell viability (%)
I only need the number, in %, no unit after it.

// query cell viability value for entry NCCCCN [putrescine] 97.1

---

# Tested on: U2OS
# Assay Summary: cell viability relative to DMSO; higher = less toxic
# Particulars: 72 h; 1 nM
cell viability overview
I only need the number, in %, no unit after it.

• NC(=O)CN1CCCC1=O [piracetam] = 100
• Cc1cc(C)c(S(=O)(=O)n2cc(C)cc2C)c(C)c1 [HJC-0350] = 97.4
• CCOC(=O)[C@@H](N)Cc1ccc(-c2cc(O[C@H](c3ccc(Cl)cc3-n3ccc(C)n3)C(F)(F)F)nc(N)n2)cc1 [telotristat-ethyl] = 96.6
• CC(C)(O)c1coc(S(=O)(=O)NC(=O)Nc2c3c(cc4c2CCC4)CCC3)c1 [MCC950] = 104
• CC(=O)N[C@H]1[C@@H](O)[C@H](O)[C@@H](CO)O[C@@H]1O [N-acetylmannosamine] = 95.6
• Cl/C=C\C[N+]12CN3CN(CN(C3)C1)C2 [1-((Z)-3-chloroallyl)-1,3,5,7-tetraazaadamantan-1-ium] = 94.5
• Cc1ccccc1OCC(O)CO (centres undefined) [mephenesin] = 101
• CC1(C)C(=O)N(CCN2CCC(C(=O)c3ccc(F)cc3)CC2)c2ccccc21 = 97.7

Kindly review the next compound as well.
// query cell viability value for entry COc1ccccc1OC(=O)c1ccccc1OC(C)=O [guacetisal] 97.3

---

cell viability overview
# System: Calu-3
# Assay Summary: cell viability relative to DMSO; higher = less toxic
# Particulars: 72 h; 100 nM
I only need the number, in %, no unit after it.

// query cell viability value for entry CC[C@H]1[C@@H]2C[C@H]3[C@@H]4N(C)c5ccccc5[C@]45C[C@@H]([C@@H]2[C@H]5O)N3[C@@H]1O [ajmaline] 91.9

// query cell viability value for entry Cc1cc(C)c(S(=O)(=O)n2cc(C)cc2C)c(C)c1 [HJC-0350] 92.9

// query cell viability value for entry CC1(C)C(=O)N(CCN2CCC(C(=O)c3ccc(F)cc3)CC2)c2ccccc21 90.6

// query cell viability value for entry COc1cc2c(cc1F)C(c1ccccc1Cl)=Nc1c(n[nH]c1C)N2 [RG1530] 98.7

// query cell viability value for entry Cc1ccc(S(=O)(=O)NCl)cc1 [chloramine-T] 92.2

// query cell viability value for entry CC(=O)Oc1ccccc1C(=O)Nc1ncc([N+](=O)[O-])s1 [nitazoxanide] 107

---

# Test system: HepG2
# Assay Summary: cell viability relative to DMSO; higher = less toxic
# Particulars: 72 h; 1 nM
Property Label: cell viability (%)
I only need the number, in %, no unit after it.

Recorded results for 4 molecules are shown here.
- CN(C(=O)CN1C(=O)COc2cc(Cl)c(Cl)cc21)[C@@H](CN1CCCC1)c1ccc(-c2cccc(C(N)=O)c2)cc1: 95
- NCC(CC(=O)O)c1ccccc1 (stereo not given): 95.1
- COc1cc2c(CCNC(C)=O)c[nH]c2cc1Cl: 107
- Cc1c(C)c(NCC(=O)N(C)C2CCN(Cc3ccc(C(N)=O)cc3)CC2)c(C)c(C)c1N: 97.5

Kindly review the next molecule as well.
Lab note: need cell viability for CCOC(=O)c1ccc(N(C)c2csc(-c3ccccc3)n2)cc1 on HepG2, anyone have it? 86.2
